# System: Mycobacterium tuberculosis
# measurementNotes: Antibacterial activity against Mycobacterium tuberculosis H37Rv ATCC 27294 after 24 hrs by alamar blue assay
# Format: functional
# conditionDetails: H37Rv ATCC 27294, 24 h
measurementKind: MIC

Observe how each entry below is paired with its result.
>>> measuredvalue("COc1ccc(S(=O)(=O)N(Cc2ccc3c(c2)OCO3)C[C@@H](O)[C@@H](N)Cc2ccccc2)cc1")
"51.6 µM"
>>> measuredvalue("CC[C@@H](CO)NCCN[C@@H](CC)CO")
"15.9 µM"
>>> measuredvalue("Cc1ccc(S(=O)(=O)N(Cc2ccc3c(c2)OCO3)C[C@@H](O)[C@H](Cc2ccccc2)NC(=O)OC(C)(C)C)cc1")
"> 500 µM"

Lab book: MIC of COc1ccc(S(=O)(=O)N(Cc2ccc3c(c2)OCO3)C[C@@H](O)[C@H](Cc2ccccc2)NC(=O)OC(C)(C)C)cc1 noted as > 500 µM

Lab book: MIC of CC(C)(C)OC(=O)N[C@@H](Cc1ccccc1)[C@H](O)CNCc1ccc2c(c1)OCO2 noted as 241 µM

Lab book: MIC of CC(C)(C)OC(=O)N[C@@H](Cc1ccccc1)[C@H](O)CN(Cc1ccc2c(c1)OCO2)S(=O)(=O)c1ccc(F)cc1 noted as > 500 µM

====

# System: Mycobacterium tuberculosis
# measurementNotes: Antibacterial activity against Mycobacterium tuberculosis H37Rv ATCC 27294 after 24 hrs by alamar blue assay
# Assay type: functional
# conditionDetails: H37Rv ATCC 27294, 24 h
measurementKind: MIC (µM)
All answers are understood in µM, so give the number only.

The recorded MIC with Mycobacterium tuberculosis for N[C@@H](Cc1ccccc1)[C@H](O)CN(Cc1ccc2c(c1)OCO2)S(=O)(=O)c1ccc(F)cc1 was 211

The recorded MIC with Mycobacterium tuberculosis for Cc1ccc(S(=O)(=O)N(Cc2ccc3c(c2)OCO3)C[C@@H](O)[C@@H](N)Cc2ccccc2)cc1 was 106

====

# System: Mycobacterium tuberculosis
# measurementNotes: Antibacterial activity against Mycobacterium tuberculosis H37Rv ATCC 27294 after 24 hrs by alamar blue assay
# Type: functional
# conditionDetails: H37Rv ATCC 27294, 24 h
Examples of molecules with documented MIC follow.
All answers are understood in µM, so give the number only.

>>> measuredvalue("N[C@@H](Cc1ccccc1)[C@H](O)CN(Cc1ccc2c(c1)OCO2)S(=O)(=O)c1ccc(Br)cc1")
23.5

Turning now to a further molecule:
Lab book: MIC of N[C@@H](Cc1ccccc1)[C@H](O)CNCc1ccc2c(c1)OCO2 noted as 318

====

# measurementNotes: Partition coefficient, log P of the compound
# Assay type: physicochemical
# conditionDetails: octanol/water
measurementKind: logP
Please state the value as a number alone, without comment.

Lab book: logP of N[C@@H](Cc1ccccc1)[C@H](O)CN(Cc1ccc2c(c1)OCO2)S(=O)(=O)c1ccc(F)cc1 noted as 1.64

====

Examples of molecules with documented logP follow.
# measurementNotes: Partition coefficient, log P of the compound
# Type: physicochemical
# conditionDetails: octanol/water
Please state the value as a number alone, without comment.

Observe how each entry below is paired with its result.
>>> measuredvalue("COc1ccc(S(=O)(=O)N(Cc2ccc3c(c2)OCO3)C[C@@H](O)[C@H](Cc2ccccc2)NC(=O)OC(C)(C)C)cc1")
6.36
>>> measuredvalue("CC(C)(C)OC(=O)N[C@@H](Cc1ccccc1)[C@H](O)CN(Cc1ccc2c(c1)OCO2)S(=O)(=O)c1ccc(N)cc1")
6.47
>>> measuredvalue("COc1ccc(S(=O)(=O)N(Cc2ccc3c(c2)OCO3)C[C@@H](O)[C@@H](N)Cc2ccccc2)cc1")
2.62
>>> measuredvalue("Cc1ccc(S(=O)(=O)N(Cc2ccc3c(c2)OCO3)C[C@@H](O)[C@H](Cc2ccccc2)NC(=O)OC(C)(C)C)cc1")
6.75

Lab book: logP of N[C@@H](Cc1ccccc1)[C@H](O)CNCc1ccc2c(c1)OCO2 noted as 1.41

Lab book: logP of N[C@@H](Cc1ccccc1)[C@H](O)CN(Cc1ccc2c(c1)OCO2)S(=O)(=O)c1ccc([N+](=O)[O-])cc1 noted as 2.52

Lab book: logP of CC(C)(C)OC(=O)N[C@@H](Cc1ccccc1)[C@H](O)CNCc1ccc2c(c1)OCO2 noted as 5.15

Lab book: logP of CC(C)(C)OC(=O)N[C@@H](Cc1ccccc1)[C@H](O)CN(Cc1ccc2c(c1)OCO2)S(=O)(=O)c1ccc(F)cc1 noted as 5.38

Lab book: logP of CC(C)(C)OC(=O)N[C@@H](Cc1ccccc1)[C@H](O)CN(Cc1ccc2c(c1)OCO2)S(=O)(=O)c1ccc([N+](=O)[O-])cc1 noted as 6.26

Lab book: logP of Cc1ccc(S(=O)(=O)N(Cc2ccc3c(c2)OCO3)C[C@@H](O)[C@@H](N)Cc2ccccc2)cc1 noted as 3.01

Lab book: logP of N[C@@H](Cc1ccccc1)[C@H](O)CN(Cc1ccc2c(c1)OCO2)S(=O)(=O)c1ccc(Br)cc1 noted as 3.37

Lab book: logP of CC[C@@H](CO)NCCN[C@@H](CC)CO noted as 0.35

Lab book: logP of CC(C)(C)OC(=O)N[C@@H](Cc1ccccc1)[C@H](O)CN(Cc1ccc2c(c1)OCO2)S(=O)(=O)c1ccc(Br)cc1 noted as 7.11
